# Target Or System: hGLP-1R (Homo sapiens)
# Sequence (P43220 24-463): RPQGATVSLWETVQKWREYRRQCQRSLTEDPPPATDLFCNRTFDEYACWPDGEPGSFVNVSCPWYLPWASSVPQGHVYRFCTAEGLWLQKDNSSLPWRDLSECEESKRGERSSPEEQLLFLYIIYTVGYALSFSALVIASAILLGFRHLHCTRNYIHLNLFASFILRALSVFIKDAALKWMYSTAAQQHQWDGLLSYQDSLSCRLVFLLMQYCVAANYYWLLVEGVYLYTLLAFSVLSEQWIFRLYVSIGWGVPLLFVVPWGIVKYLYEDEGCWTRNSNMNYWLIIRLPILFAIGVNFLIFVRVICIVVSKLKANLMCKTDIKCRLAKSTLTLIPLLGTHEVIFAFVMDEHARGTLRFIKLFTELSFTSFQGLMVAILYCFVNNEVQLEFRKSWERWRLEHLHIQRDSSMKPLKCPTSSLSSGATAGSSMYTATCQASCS
# Assay Explanation: Functional cAMP activation in the presence of 0.1% casein (no HSA);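 note: intracellular cAMP rise after 30 min at 37 °C read by HTRF, normalized between buffer only (0%) and maximal control ligand (100%), four-parameter variable-slope fit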
# Format: cell-based
# Measurement Parameters: in the presence of 0.1% casein (no HSA); geometric mean; read-out: Relative cAMP EC50, hGLP-1R
Starred links: 1 amine or outer side, 2 acyl side, 3 side chain; linkers in the order of their positions; H or OH if unused. Non-standard residues stand in square brackets, D forms with d. Groups on a side chain read outwards from the residue. *: point of attachment. C20 diacid = O=C(O)CCCCCCCCCCCCCCCCCCC(=O)*; C18 diacid = O=C(O)CCCCCCCCCCCCCCCCC(=O)*; αMePhe(2-F) = C[C@](N)(Cc1ccccc1F)C(=O)O; γGlu = O=C(O)[C@H](CCC(=O)[*:2])N[*:1]; αMeL = CC(C)C[C@](C)(N)C(=O)O; Orn = NCCC[C@H](N)C(=O)O; Dap = NC[C@H](N)C(=O)O; AEEA = NCCOCCOCC(=O)O; Aib = CC(C)(N)C(=O)O
Quantity Measured: pEC50
One number for each entry, as −log10 of the molar value.

Substance | Target Or System | pEC50
H-Y[Aib]QGTFTSDFS[Dap][αMeL]LDKK([γGlu-γGlu-C18 diacid])AQ[Aib]AFIEYLLE[Aib]GPSSGAPPPSGS-NH2 [Example 203] | hGLP-1R (Homo sapiens) | 8.33

For every item below, please supply its pEC50.
1. H-Y[Aib]QGT[αMePhe(2-F)]TSDYSILLDKIAQK([AEEA-γGlu-C20 diacid])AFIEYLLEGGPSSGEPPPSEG-NH2 [Example 293]
2. H-Y[Aib]QGTFTSDFS[Orn][αMeL]LDKK([AEEA-AEEA-γGlu-C18 diacid])AQ[Aib]AFIEWLLEGGHSSGAPPPSGE-NH2 [Example 169]

[9.00, 8.21]

* * *

# Target Or System: human GcgR (Homo sapiens)
# Sequence (P47871 26-477): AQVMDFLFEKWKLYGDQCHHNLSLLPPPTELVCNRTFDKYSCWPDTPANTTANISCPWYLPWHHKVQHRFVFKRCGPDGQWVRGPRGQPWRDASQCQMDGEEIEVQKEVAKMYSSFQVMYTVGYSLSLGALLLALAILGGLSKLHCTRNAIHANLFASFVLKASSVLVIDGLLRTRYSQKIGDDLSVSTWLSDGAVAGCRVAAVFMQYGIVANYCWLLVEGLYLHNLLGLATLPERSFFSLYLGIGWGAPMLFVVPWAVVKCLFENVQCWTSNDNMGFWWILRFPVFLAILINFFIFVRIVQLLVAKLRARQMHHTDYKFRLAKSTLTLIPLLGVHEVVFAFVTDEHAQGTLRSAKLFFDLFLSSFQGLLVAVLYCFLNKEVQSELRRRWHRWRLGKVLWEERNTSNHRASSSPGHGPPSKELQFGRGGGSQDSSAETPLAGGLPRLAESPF
# Assay Explanation: Functional cAMP activity in the presence of 1% HSA
# Assay type: cell-based
# Measurement Parameters: read-out: cAMP Rel EC50, hGcgR
Starred links: 1 amine or outer side, 2 acyl side, 3 side chain; linkers in the order of their positions; H or OH if unused. Non-standard residues stand in square brackets, D forms with d. Groups on a side chain read outwards from the residue. No end group written: not given here. *: point of attachment. C20 diacid = O=C(O)CCCCCCCCCCCCCCCCCCC(=O)*; C18 diacid = O=C(O)CCCCCCCCCCCCCCCCC(=O)*; Phe(4-CN) = N#Cc1ccc(C[C@H](N)C(=O)O)cc1; αMePhe(2-F) = C[C@](N)(Cc1ccccc1F)C(=O)O; γGlu = O=C(O)[C@H](CCC(=O)[*:2])N[*:1]; NMeY = CN[C@@H](Cc1ccc(O)cc1)C(=O)O; αMe4Pal = C[C@](N)(Cc1ccncc1)C(=O)O; αMeY = C[C@](N)(Cc1ccc(O)cc1)C(=O)O; Hyp = O=C(O)[C@@H]1C[C@@H](O)CN1; 4Pal = N[C@@H](Cc1ccncc1)C(=O)O; αMeL = CC(C)C[C@](C)(N)C(=O)O; αMeS = C[C@](N)(CO)C(=O)O; Orn = NCCC[C@H](N)C(=O)O; AEEA = NCCOCCOCC(=O)O; Aib = CC(C)(N)C(=O)O
I'd appreciate it if you could supply pEC50 values for the items below.
One number for each entry, as −log10 of the molar value.

Use the examples below as a reference point.
Substance | pEC50
H-Y[Aib]QGT[αMePhe(2-F)]TSD[4Pal][αMeS]I[αMeL]LD[Orn]QAQ[αMe4Pal]EFI[dE][αMeY]LIEGGPSSGAPPPSGS-NH2 [Example 1232] | 8.07
Y[Aib]QGT[αMePhe(2-F)]TSD[4Pal][αMeS]I[αMeL]LD[Orn]K([AEEA-γGlu-C18 diacid])YQ[αMe4Pal]EFI[dE][αMeY]LVEGGPSSGAPPPSGS-NH2 [Example 767] | 6.68
H-Y[Aib]QGTFTSD[4Pal]SQ[αMeL]LD[Orn]K([AEEA-γGlu-C18 diacid])AQ[αMe4Pal]AFIE[αMeY]LIA[Aib]GPSSGEPPPSGSEE-NH2 [Example 1099] | 6.33
H-Y[Aib]QGT[αMePhe(2-F)]TSD[4Pal]SI[αMeL]LD[Orn]K([AEEA-γGlu-C18 diacid])AQ[αMe4Pal][Orn]FI[dE][αMeY]LIEGGPSSGEPPPEEG-NH2 [Example 475] | 6.60
H-Y[Aib]QGTFTSD[4Pal]SQ[αMeL]LD[Orn]K([AEEA-γGlu-C18 diacid])AQ[αMe4Pal]QFIE[αMeY]LIEGGPSSGAPPPSGSEE-NH2 [Example 1045] | 5.81
H-Y[Aib]QGTFTSDFS[Orn][αMeL]LDKK([AEEA-γGlu-C20 diacid])AQ[Aib]AFIEYLLAGGTSSGEPPPSGE-NH2 [Example 106] | 5.70
H-Y[Aib]QGT[αMePhe(2-F)]TSD[4Pal][αMeS]I[αMeL]LD[Orn]K([AEEA-γGlu-C18 diacid])AQ[αMe4Pal]EFI[dE][αMeY]LIEGGPPS[Aib][Orn]PPPEGE-NH2 [Example 1194] | 6.67
H-Y[Aib]QGTFTSDFS[Orn][αMeL]LDKK([AEEA-γGlu-C18 diacid])AQ[Aib]AFIEYLLEGG[Hyp]SSGAPPPGGS-NH2 [Example 234] | 6.15

Could you tell me pEC50 for each of these substances? They are listed below.
1. H-Y[Aib]QGTFTSD[4Pal]S[Orn][αMeL]LDKK([γGlu-γGlu-C18 diacid])AQ[αMe4Pal]AFIE[αMe4Pal]LIEGGPSSGAPPPSGSEE-NH2 [Example 958]
2. H-Y[Aib]QGT[αMePhe(2-F)]TSD[Phe(4-CN)]SKLLDKIAQK([AEEA-γGlu-C20 diacid])AFIEYLIEGGPSSGEPPPSGS-NH2 [Example 364]
3. H-Y[Aib]QGT[αMePhe(2-F)]TSD[4Pal]SI[αMeL]LD[Orn]K([AEEA-γGlu-C18 diacid])AQ[Aib][Orn]FIEYLIEGGPSSGEPPPEEG-NH2 [Example 477]
4. H-Y[Aib]QGTFTSD[4Pal]SK[αMeL]LDKK([AEEA-γGlu-C18 diacid])AQ[Aib]AFIEYLIE[Aib]GPSSGAPPPSGSEEE-NH2 [Example 903]
5. Y[Aib]QGTFTSD[4Pal]SQ[αMeL]LDKK([Glu-Glu-γGlu-C18 diacid])AQ[αMe4Pal]AFIEYLIE[Aib]GPSSGAPPPSGS-NH2 [Example 895]
6. H-Y[Aib]QGTFTSD[4Pal]SQ[αMeL]LDKK([AEEA-γGlu-C18 diacid])AQ[αMe4Pal]AFIE[αMe4Pal]LIEGGPSSGAPPPSGSEE-NH2 [Example 954]
7. H-Y[Aib]QGT[αMePhe(2-F)]TSDYSKLLDKIAQK([AEEA-γGlu-C20 diacid])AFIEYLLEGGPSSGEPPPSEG-NH2 [Example 295]
8. H-Y[Aib]Q[dA]T[αMePhe(2-F)]TSD[4Pal]SI[αMeL]LD[Orn]K([AEEA-γGlu-C18 diacid])AQ[αMe4Pal]EFI[dE][αMeY]LVEGGPSSGAPPPSGS-NH2 [Example 1205]

[6.47, 5.50, 6.15, 5.79, 5.90, 6.35, 6.22, 6.49]

For every item in the list below, what is its measured pEC50?
1. H-[NMeY][Aib]QGTFTSD[4Pal][αMeS]Q[αMeL]LD[Orn]K([dE-γGlu-C18 diacid])AQ[αMe4Pal]QFIQ[αMeY]LIE[Aib]GPSSGAPPPSGGGE-NH2 [Example 1134]
2. H-Y[Aib]QGTFTSD[4Pal]SQ[αMeL]LD[Orn]K([γGlu-γGlu-C18 diacid])AQ[αMe4Pal]QFIEYLLAGGPSSGAPPPSGSEE-NH2 [Example 1006]

1. 6.74
2. 6.50

Items follow; give pEC50 for each.
1. H-Y[Aib]QGTFTSD[4Pal]SQ[αMeL]LD[Orn]K([γGlu-γGlu-C18 diacid])AQ[αMe4Pal]AFIE[αMeY]LIA[Aib]GPSSGAPPPSGSEE-NH2 [Example 1107]
2. H-Y[Aib]QGTFTSDFS[Orn][αMeL]LDKK([AEEA-γGlu-C18 diacid])AQ[Aib]AFIEYLLAGGPSSGEPPPEGS-NH2 [Example 152]
3. H-Y[Aib]QGT[αMePhe(2-F)]TSD[4Pal][αMeS]ILLD[Orn]K([γGlu-γGlu-C18 diacid])AQ[Aib][Orn]FI[dE][αMeY]LQEGGPSSGEPPPEGAEE-NH2 [Example 574]

6.06
5.96
6.36
